protocol_notes: Pharmacokinetics of gefitinib in rats, alone and coadministered with CJ (serum, LC-MS/MS)
Assay type: in vivo
measurement_parameters: male, Sprague-Dawley, rat, serum, po, 50 mg/kg, gefitinib 50 mg/kg oral + water, rats, serum, mean ± S.E., n = 5
measurement_kind: Tmax (h)
One number for each entry, in h.

# Tmax (compound: COc1cc2ncnc(Nc3ccc(F)c(Cl)c3)c2cc1OCCCN1CCOCC1 ) is 4.4

----------
protocol_notes: Pharmacokinetics of gefitinib in rats, alone and coadministered with CJ (serum, LC-MS/MS)
Format: in vivo
measurement_parameters: male, Sprague-Dawley, rat, serum, po, 50 mg/kg, gefitinib 50 mg/kg oral coadministered with CJ (5.0 g/kg of cranberry), rats, mean ± S.E., n = 5
measurement_kind: MRT (h)
Numbers only, in h.

# MRT (molecule: COc1cc2ncnc(Nc3ccc(F)c(Cl)c3)c2cc1OCCCN1CCOCC1 ) is 9.05

Data credit: paper PMC9501900
